assay: activity coefficient (dimensionless); of the first substance listed, at infinite dilution; xn = mol fraction of the nth substance listed; details: 318.15 K; 101 kPa; Liquid; Chromatography; x1 = 0
Tick y if activity coefficient is 1 or greater. Tick n if activity coefficient is less than 1.

{"columns": ["Compound", "Label value"],
 "data": [
  ["C#CCCCCCC [1-octyne] + CCCCCCOCn1cc[n+](C)c1.O=S(=O)([N-]S(=O)(=O)C(F)(F)F)C(F)(F)F", "y"],
  ["CCCCCC [hexane] + CCCCCCOCn1cc[n+](COCCCCCC)c1.O=S(=O)([N-]S(=O)(=O)C(F)(F)F)C(F)(F)F", "y"],
  ["c1ccsc1 [thiophene] + CCCCCCOCn1cc[n+](COCCCCCC)c1.O=S(=O)([N-]S(=O)(=O)C(F)(F)F)C(F)(F)F", "n"],
  ["CCCCCCC [heptane] + CCCCCCOCn1cc[n+](COCCCCCC)c1.O=S(=O)([N-]S(=O)(=O)C(F)(F)F)C(F)(F)F", "y"],
  ["c1ccsc1 [thiophene] + CCCCCCOCn1cc[n+](C)c1.O=S(=O)([N-]S(=O)(=O)C(F)(F)F)C(F)(F)F", "n"],
  ["Cc1ccc(C)cc1 [1,4-dimethylbenzene] + CCCCCCOCn1cc[n+](COCCCCCC)c1.O=S(=O)([N-]S(=O)(=O)C(F)(F)F)C(F)(F)F", "n"],
  ["Cc1cccc(C)c1 [1,3-dimethylbenzene] + CCCCCCOCn1cc[n+](C)c1.O=S(=O)([N-]S(=O)(=O)C(F)(F)F)C(F)(F)F", "y"],
  ["CCCO [propan-1-ol] + CCCCCCOCn1cc[n+](COCCCCCC)c1.O=S(=O)([N-]S(=O)(=O)C(F)(F)F)C(F)(F)F", "y"],
  ["O [water] + CCCCCCOCn1cc[n+](C)c1.O=S(=O)([N-]S(=O)(=O)C(F)(F)F)C(F)(F)F", "y"],
  ["CCCCC [pentane] + CCCCCCOCn1cc[n+](C)c1.O=S(=O)([N-]S(=O)(=O)C(F)(F)F)C(F)(F)F", "y"],
  ["CCCO [propan-1-ol] + CCCCCCOCn1cc[n+](C)c1.O=S(=O)([N-]S(=O)(=O)C(F)(F)F)C(F)(F)F", "y"],
  ["C#CCCCCC [1-heptyne] + CCCCCCOCn1cc[n+](COCCCCCC)c1.O=S(=O)([N-]S(=O)(=O)C(F)(F)F)C(F)(F)F", "y"],
  ["C=CCCCCC [1-heptene] + CCCCCCOCn1cc[n+](COCCCCCC)c1.O=S(=O)([N-]S(=O)(=O)C(F)(F)F)C(F)(F)F", "y"],
  ["C#CCCCCCC [1-octyne] + CCCCCCOCn1cc[n+](COCCCCCC)c1.O=S(=O)([N-]S(=O)(=O)C(F)(F)F)C(F)(F)F", "y"],
  ["C#CCCCC [1-hexyne] + CCCCCCOCn1cc[n+](COCCCCCC)c1.O=S(=O)([N-]S(=O)(=O)C(F)(F)F)C(F)(F)F", "y"],
  ["Cc1cccc(C)c1 [1,3-dimethylbenzene] + CCCCCCOCn1cc[n+](COCCCCCC)c1.O=S(=O)([N-]S(=O)(=O)C(F)(F)F)C(F)(F)F", "n"],
  ["CCO [ethanol] + CCCCCCOCn1cc[n+](C)c1.O=S(=O)([N-]S(=O)(=O)C(F)(F)F)C(F)(F)F", "y"],
  ["C1CCOC1 [tetrahydrofuran] + CCCCCCOCn1cc[n+](COCCCCCC)c1.O=S(=O)([N-]S(=O)(=O)C(F)(F)F)C(F)(F)F", "n"],
  ["c1ccccc1 [benzene] + CCCCCCOCn1cc[n+](C)c1.O=S(=O)([N-]S(=O)(=O)C(F)(F)F)C(F)(F)F", "n"],
  ["CCCCCCCCCC [decane] + CCCCCCOCn1cc[n+](COCCCCCC)c1.O=S(=O)([N-]S(=O)(=O)C(F)(F)F)C(F)(F)F", "y"],
  ["CO [methanol] + CCCCCCOCn1cc[n+](C)c1.O=S(=O)([N-]S(=O)(=O)C(F)(F)F)C(F)(F)F", "y"],
  ["CCCCC [pentane] + CCCCCCOCn1cc[n+](COCCCCCC)c1.O=S(=O)([N-]S(=O)(=O)C(F)(F)F)C(F)(F)F", "y"],
  ["CCCCCCC [heptane] + CCCCCCOCn1cc[n+](C)c1.O=S(=O)([N-]S(=O)(=O)C(F)(F)F)C(F)(F)F", "y"],
  ["CCCOCCC [dipropyl ether] + CCCCCCOCn1cc[n+](COCCCCCC)c1.O=S(=O)([N-]S(=O)(=O)C(F)(F)F)C(F)(F)F", "y"],
  ["C=CCCCCCC [oct-1-ene] + CCCCCCOCn1cc[n+](C)c1.O=S(=O)([N-]S(=O)(=O)C(F)(F)F)C(F)(F)F", "y"],
  ["Cc1ccccc1C [1,2-dimethylbenzene] + CCCCCCOCn1cc[n+](COCCCCCC)c1.O=S(=O)([N-]S(=O)(=O)C(F)(F)F)C(F)(F)F", "n"],
  ["C1CCOC1 [tetrahydrofuran] + CCCCCCOCn1cc[n+](C)c1.O=S(=O)([N-]S(=O)(=O)C(F)(F)F)C(F)(F)F", "n"]
]}
